So I've got a bunch of compounds here, and I need their IC50 values.
Molecular target: Keap1-Nrf2 (Homo sapiens, UniProt Q14145)
Construct: purchased Sino Biological 11981-H20B
Test: Keap1-Nrf2 Binding Inhibitory Activity Assay (fluorescence polarization, Keap1_FL + FITC-Nrf2 peptide)
Details: Keap1-FL, 60 min room temperature

Worked cases, IC50 given:
Summary: Cc1c2ccc3c1nnn3CCCCC(=O)N1CCc3ccc(cc3C1)C2CC(=O)O (stereo not shown) [Compound 46] , Keap1-Nrf2 (Homo sapiens, UniProt Q14145), IC50 = 100 to 1000 nM

Summary: Cc1c2ccc3c1nnn3CCCOCc1ccc(cc1)S(=O)(=O)N(C)Cc1cccc(c1)C2CC(=O)O (stereo not shown) [Compound 22] , Keap1-Nrf2 (Homo sapiens, UniProt Q14145), IC50 = 1000 to 10000 nM

Summary: Cc1c2ccc3c1nnn3CCCCCC1CCN(CC1)C(=O)N1CCc3ccc(cc3C1)C2CC(=O)O (single isomer, unassigned) [Compound 29] , Keap1-Nrf2 (Homo sapiens, UniProt Q14145), IC50 = ≤ 100 nM

Summary: Cc1c2ccc3c1nnn3CCCCCN1CCN(CC1)C(=O)N1CCc3ccc(cc3C1)C2CC(=O)O (stereo not shown) [Compound 5] , Keap1-Nrf2 (Homo sapiens, UniProt Q14145), IC50 = 100 to 1000 nM

Summary: Cc1c2ccc3c1nnn3CCOCCOC1CCN(CC1)C(=O)c1ccc3c(c1)CN(CC3)C2CC(=O)O (stereo not shown) [Compound 9] , Keap1-Nrf2 (Homo sapiens, UniProt Q14145), IC50 = 1000 to 10000 nM

Give measured IC50 for every item shown.
1. Cc1c2ccc3c1nnn3CCCCOC1CCN(CC1)C(=O)N1CCc3ccc(cc3C1)C2CC(=O)O (stereo not shown) [Compound 10]
2. Cc1c2ccc3c1nnn3CCCCCC1CCC(CC1)C(=O)N1CCc3ccc(cc3C1)C2CC(=O)O (stereo not shown) [Compound 35]
3. Cc1c2ccc3c1nnn3CCOCCOC1CCN(CC1)S(=O)(=O)N1CCc3ccc(cc3C1)C2CC(=O)O (stereo not shown) [Compound 15]
4. Cc1c2ccc3c1nnn3CCCCOC1CCN(CC1)S(=O)(=O)N1CCc3ccc(cc3C1)C2CC(=O)O (stereo not shown) [Compound 6]
5. Cc1c2ccc3c1nnn3CCCCCCCCNC(=O)N1CCc3ccc(cc3C1)C2CC(=O)O (stereo not shown) [Compound 38]
6. Cc1c2ccc3c1nnn3CCOCCOc1ccc(cc1)S(=O)(=O)N1CCc3ccc(cc3C1)C2CC(=O)O (stereo not shown) [Compound 1]

[reply]
["≤ 100 nM", "≤ 100 nM", "≤ 100 nM", "≤ 100 nM", "≤ 100 nM", "100 to 1000 nM"]

Give measured IC50 for every item shown.
1. Cc1c2ccc3c1nnn3CCCCCC1CCC(CC1)C(=O)N1CCc3ccc(cc3C1)C2CC(=O)O (single isomer, unassigned) [Compound 49]
2. Cc1c2ccc3c1nnn3CCCOCc1ccc(cc1)C(=O)N(C)Cc1cccc(n1)C2CC(=O)O (single isomer, unassigned) [Compound 24]
3. Cc1c2ccc3c1nnn3CCOCCOC1CCN(CC1)C(=O)c1ccc3ccc(cc3c1)C2CC(=O)O (single isomer, unassigned) [Compound 19]
4. Cc1c2ccc3c1nnn3CCCOCc1ccc(cc1)C(=O)N(C)Cc1cc(ccn1)C2CC(=O)O (single isomer, unassigned) [Compound 27]
5. O=C(O)CC1c2ccc3c(c2)CN(CC3)C(=O)C2CCC(CCCCCn3nnc4cc1cnc43)CC2 (stereo not shown) [Compound 55]
6. Cc1c2ccc3c1nnn3CCCCCC1CCN(CC1)C(=O)N1CCc3ccc(cc3C1)C2CC(=O)O (single isomer, unassigned) [Compound 28]

[reply]
1: ≤ 100 nM; 2: 100 to 1000 nM; 3: 1000 to 10000 nM; 4: 1000 to 10000 nM; 5: ≤ 100 nM; 6: ≤ 100 nM

Give measured IC50 for every item shown.
1. Cc1c2ccc3c1nnn3CCCCCC1CCN(CC1)C(=O)N(C)CCc1ccc(cc1)C2CC(=O)O (stereo not shown) [Compound 44]
2. Cc1c2ccc3c1nnn3CCCCC1CCC(CC1)C(=O)N1CCc3ccc(cc3C1)C2CC(=O)O (single isomer, unassigned) [Compound 47]
3. O=C(O)CC1c2ccc3c(c2)CN(CC3)C(=O)N2CCC(CCCCCn3nnc4c(Cl)c1ccc43)CC2 (stereo not shown) [Compound 30]
4. Cc1c2ccc3c1nnn3CCCCCCC(=O)N1CCc3ccc(cc3C1)C2CC(=O)O (stereo not shown) [Compound 42]
5. O=C(O)CC1c2ccc3c(c2)CN(CC3)C(=O)N2CCC(CCCCCn3nnc4cc1cnc43)CC2 (single isomer, unassigned) [Compound 53]
6. Cc1c2ccc3c1nnn3CCCCC1CCC(CC1)C(=O)N(C)Cc1cccc(c1)C2CC(=O)O (stereo not shown) [Compound 36]
7. Cc1c2ccc3c1nnn3CCCCC1CCC(CC1)C(=O)N1CCc3ccc(cc3C1)C2CC(=O)O (single isomer, unassigned) [Compound 48]
8. Cc1c2ccc3c1nnn3CCCCCCCCCC(=O)N1CCc3ccc(cc3C1)C2CC(=O)O (stereo not shown) [Compound 41]

[reply]
1. 1000 to 10000 nM
2. ≤ 100 nM
3. ≤ 100 nM
4. ≤ 100 nM
5. ≤ 100 nM
6. 100 to 1000 nM
7. ≤ 100 nM
8. ≤ 100 nM

Give measured IC50 for every item shown.
1. Cc1ccc2cc1CN(C)C(=O)c1ccc(cc1)COCCCn1nnc3c(C)c(ccc31)C2CC(=O)O (single isomer, unassigned) [Compound 16]
2. Cc1c2ccc3c1nnn3CCCOCc1ccc(cc1)C(=O)N(C)Cc1cccc(c1)C2CC(=O)O (stereo not shown) [Compound 7]
3. Cc1c2ccc3c1nnn3CCCCCC1CCC(CC1)C(=O)N(C)Cc1cccc(c1)C2CC(=O)O (stereo not shown) [Compound 37]

[reply]
["1000 to 10000 nM", "≤ 100 nM", "100 to 1000 nM"]
